# measured on: PRMT5 (Homo sapiens, UniProt O14744)
# Construct: purchased Viva (custom protein)
# Sequence (O14744 whole entry): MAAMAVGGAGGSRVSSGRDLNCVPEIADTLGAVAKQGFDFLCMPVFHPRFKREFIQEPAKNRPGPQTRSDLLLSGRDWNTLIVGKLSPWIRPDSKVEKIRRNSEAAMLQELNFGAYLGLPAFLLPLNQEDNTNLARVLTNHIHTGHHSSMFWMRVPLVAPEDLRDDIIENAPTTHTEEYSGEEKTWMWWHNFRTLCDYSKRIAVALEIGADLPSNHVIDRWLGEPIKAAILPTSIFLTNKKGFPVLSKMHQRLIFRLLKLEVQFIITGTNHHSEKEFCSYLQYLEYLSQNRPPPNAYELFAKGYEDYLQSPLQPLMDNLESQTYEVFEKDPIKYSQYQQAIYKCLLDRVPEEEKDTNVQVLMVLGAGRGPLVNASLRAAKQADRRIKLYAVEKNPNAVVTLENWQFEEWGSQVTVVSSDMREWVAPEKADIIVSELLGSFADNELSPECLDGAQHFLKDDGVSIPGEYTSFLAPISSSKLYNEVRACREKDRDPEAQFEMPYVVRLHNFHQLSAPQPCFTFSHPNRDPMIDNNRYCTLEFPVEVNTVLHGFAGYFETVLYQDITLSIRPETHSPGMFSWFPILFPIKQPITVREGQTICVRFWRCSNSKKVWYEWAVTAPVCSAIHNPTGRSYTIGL
# Sequence (Q9BQA1 whole entry partner): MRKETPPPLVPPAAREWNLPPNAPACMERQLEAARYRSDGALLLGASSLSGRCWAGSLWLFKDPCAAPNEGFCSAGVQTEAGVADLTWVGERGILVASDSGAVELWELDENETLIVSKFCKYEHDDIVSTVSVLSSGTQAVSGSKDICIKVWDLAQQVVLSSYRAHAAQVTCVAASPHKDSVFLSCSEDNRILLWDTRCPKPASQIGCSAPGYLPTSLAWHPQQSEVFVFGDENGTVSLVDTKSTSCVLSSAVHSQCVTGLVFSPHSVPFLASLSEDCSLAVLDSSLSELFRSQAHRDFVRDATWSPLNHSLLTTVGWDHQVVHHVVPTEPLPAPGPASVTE
# procedure summary: PRMT5 biochemical IC50 assay with no cofactor
# assay context: PRMT5, no cofactor; read-out: No Cofactor/rel IC50
pIC50: −log10 of the molar value.
The reader will find reported pIC50 values listed item by item below.

compound	pIC50
CCc1cc(NC(=O)C(=O)N2C[C@H](C)CC[C@H]2c2ccc3sc(NC)nc3c2)cnc1N (single isomer, unassigned)	< 6.30
C[C@@H]1CC[C@@H](c2ccc(-n3cccn3)cc2)N(C(=O)C(=O)Nc2cncc(C(N)=O)c2)C1 (racemic)	6.30 to 7.30
Cc1cc(NC(=O)C(=O)N2C[C@@H](C)CC[C@@H]2C23CC(C(N)=O)(C2)C3)cnc1N (single isomer, unassigned)	< 6.30
CC1(C)CCC[C@H]2CN(C(=O)C(=O)Nc3cncc(C(N)=O)c3)CC[C@@H]21 (single isomer, unassigned)	< 6.30
C[C@@H]1CC[C@@H](c2ccc(C#N)c(C3CC3)c2)N(C(=O)C(=O)Nc2cncc(C(N)=O)c2)C1 (racemic)	6.30 to 7.30
Cc1cc(NC(=O)C(=O)N2C[C@H](C)CC[C@H]2c2cccc3[nH]cnc23)cnc1N (single isomer, unassigned)	6.30 to 7.30
Cc1ncc(NC(=O)C(=O)N2C[C@@H](C)CC[C@@H]2c2ccc3c(c2)CCC(=O)N3)cc1C(F)(F)F (single isomer, unassigned)	< 6.30
C[C@@H]1CC[C@@H](c2ccc(C3(O)CCC3)cc2)N(C(=O)C(=O)Nc2cncc(C(N)=O)c2)C1 (racemic)	6.30 to 7.30
CNc1nc2cc([C@@H]3CC[C@@H](C)CN3C(=O)C(=O)Nc3cnc(OC)c(C(N)=O)c3)ccc2s1 (single isomer, unassigned)	< 6.30
C[C@@H]1CC[C@@H](c2ccc(Cn3cncn3)cc2)N(C(=O)C(=O)Nc2cncc(C(N)=O)c2)C1 (racemic)	6.30 to 7.30
CCc1cc(NC(=O)C(=O)N2C[C@H](C)CC[C@H]2c2ccc(N3CCN(C(C)C)CC3)cc2)cnc1N (single isomer, unassigned)	< 6.30
Cc1cc(NC(=O)C(=O)N2C[C@H](C)CC[C@H]2c2ccc(F)c(Cl)c2)cnc1N (single isomer, unassigned)	> 7.30
Cc1cc(NC(=O)C(=O)N2CC[C@H](N(C)C)C[C@H]2c2ccccc2)cnc1N (racemic)	< 6.30
